- Tested on: SF-268
- Test Description: NCI tumour cell line growth inhibition, 48 h
Calls of active or inactive are those of the source. Rule as the data show it: active = GI50 up to about 1.1 µM and inactive = higher.
# Lookup of reported GI50 keyed by entry

Consider the reported GI50 for these compounds:
{"Compound": "N#Cc1nc(/C=C/c2nc(C#N)c(N)o2)oc1N", "Data Value": "> 10 µM (inactive)"}
{"Compound": "CCOC(=O)C1=C(C)NC(C)=C(C(=O)OCCNC(=O)c2ccc(N=[N+]=[N-])cc2)C1c1ccccc1C(F)(F)F (stereo unspecified)", "Data Value": "10.3 µM (inactive)"}

Entry "Cc1cnc2c(c1C)C(=O)c1ccccc1C2=O" ; GI50 = 20.1 µM (inactive)

The compound "O=C(O)c1cc(/C=C/c2cc(O)ccc2O)ccc1O" showed GI50 equal to > 10 µM (inactive)

Consider C=CCCCN1C(=O)C2C3c4ccccc4C(C=O)(c4ccccc43)C2C1=O (stereo unspecified) . Its measured GI50 is 14.5 µM (inactive)

Reported GI50 ( "CCCCCCCCCCCCc1ccsc1-c1ccc(-c2ccc(-c3sccc3CCCCCCCCCCCC)s2)s1" ) = > 100 µM (inactive)

The value of GI50 measured for the compound Cc1ccc(N(C(=O)Nc2ccc(F)c(Cl)c2)C2=NCC(C)S2)cc1 (stereo unspecified) turned out to be 27.8 µM (inactive)

# compound OCCC1(O)CCC(O)CC1 (stereo unspecified) ; its GI50 = > 100 µM (inactive)

The compound identified as CCOC(=O)C1=COC(C)(CCc2ccccc2)CC1=O (stereo unspecified) registered its GI50 at > 100 µM (inactive)

Data point: c1ccc(C2=NN(c3ccccc3)C3(S2)SC(c2ccccc2)(c2ccccc2)c2ccccc23)cc1 (stereo unspecified) ; GI50 = > 100 µM (inactive)

For reference, reported GI50 for "O=C1C=Cc2c(Cl)sc(Cl)c21" stands at 1.66 µM (inactive)

// GI50 lookup, compound = O=C(CC(=O)Nc1ccccc1)NNC(Sc1ccccc1)c1cc(/N=N/c2ccc(Br)cc2)ccc1O (stereo unspecified) , result: 0.587 µM (active)

In plain terms, "O=C(/C=C/c1ccccc1F)c1ccc(Cl)c(Cl)c1" has a documented GI50 of 38.3 µM (inactive)

Documented GI50 of CC1CCC23COC(=O)C2C(O)CCC3C1(C)CC(O)c1ccoc1 (stereo unspecified) : > 100 µM (inactive)

GET /value?item= "O=C(Cc1ccccc1)N/N=C/c1ccccc1O" &field=GI50 returns 8.57 µM (inactive)

Value of GI50 reported for the compound "O=[N+]([O-])c1ccc(NN/N=N/c2ccc(-c3nc4ccccc4[nH]3)cc2)c([N+](=O)[O-])c1" is 26.1 µM (inactive)

So for CC1CCC2C(C(=O)O[C@H]3C4C=CO[C@@H](OC5OC(CO)C(O)C(O)C5O)C4[C@@]4(CO)O[C@@H]34)=CO[C@@H](OC3OC(CO)C(O)C(O)C3O)C12 (stereo partly specified) , the logged GI50 turned out to be > 10 µM (inactive)

Summary for this compound, O=C1CN2C(c3ccccc3)=NN(c3ccc([N+](=O)[O-])cc3)C2(c2ccccc2)c2cc(Cl)ccc2N1CC1CC1 (stereo unspecified) : GI50 is > 100 µM (inactive)

Origin of values: ChEMBL document CHEMBL1201862
